Below: a set of entries, each annotated with reported EC50.
target: ALPK1 (Homo sapiens, UniProt Q96QP1)
Construct: endogenous in cells; host or cells: 293T cells
Sequence (Q96QP1 whole entry): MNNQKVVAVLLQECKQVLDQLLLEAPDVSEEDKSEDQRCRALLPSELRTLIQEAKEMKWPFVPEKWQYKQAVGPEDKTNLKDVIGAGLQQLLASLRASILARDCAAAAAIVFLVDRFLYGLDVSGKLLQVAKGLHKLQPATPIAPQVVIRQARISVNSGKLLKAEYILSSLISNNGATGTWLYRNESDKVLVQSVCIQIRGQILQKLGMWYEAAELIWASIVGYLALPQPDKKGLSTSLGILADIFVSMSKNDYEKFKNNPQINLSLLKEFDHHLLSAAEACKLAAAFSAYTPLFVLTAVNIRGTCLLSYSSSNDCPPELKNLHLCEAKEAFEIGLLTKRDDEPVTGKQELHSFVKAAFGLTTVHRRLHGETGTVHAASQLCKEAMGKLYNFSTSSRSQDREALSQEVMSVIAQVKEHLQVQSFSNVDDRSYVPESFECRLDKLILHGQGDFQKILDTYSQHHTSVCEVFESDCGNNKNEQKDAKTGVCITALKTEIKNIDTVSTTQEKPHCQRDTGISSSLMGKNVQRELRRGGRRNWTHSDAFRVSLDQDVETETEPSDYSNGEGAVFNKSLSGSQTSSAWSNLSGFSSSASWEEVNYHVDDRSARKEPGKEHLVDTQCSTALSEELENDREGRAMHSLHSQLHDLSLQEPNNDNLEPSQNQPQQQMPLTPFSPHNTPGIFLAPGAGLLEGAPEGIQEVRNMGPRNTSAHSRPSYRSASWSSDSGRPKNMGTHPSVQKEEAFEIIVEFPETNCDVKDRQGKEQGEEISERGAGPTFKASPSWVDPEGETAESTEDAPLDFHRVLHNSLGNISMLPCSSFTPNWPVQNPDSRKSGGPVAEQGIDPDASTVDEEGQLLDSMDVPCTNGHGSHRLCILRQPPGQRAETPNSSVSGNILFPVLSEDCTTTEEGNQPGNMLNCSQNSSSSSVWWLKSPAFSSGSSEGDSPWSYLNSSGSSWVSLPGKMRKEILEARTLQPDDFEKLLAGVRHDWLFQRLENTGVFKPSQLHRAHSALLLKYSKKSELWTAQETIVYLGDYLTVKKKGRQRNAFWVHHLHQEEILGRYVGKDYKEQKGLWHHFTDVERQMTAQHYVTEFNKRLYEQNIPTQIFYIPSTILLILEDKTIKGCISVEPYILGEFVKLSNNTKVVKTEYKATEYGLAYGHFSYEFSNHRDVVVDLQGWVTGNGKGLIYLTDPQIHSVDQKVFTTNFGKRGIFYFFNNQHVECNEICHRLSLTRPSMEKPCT
methodSummary: NF-κB luciferase reporter assay in 293T cells (cellular assay)
Type: cell-based

Here's what some known entries look like.
{"compound": "C=C=C[C@@]1(O)[C@H](O)[C@@H](COP(=O)(S)OP(=O)(O)OC2OC([C@@H](O)CO)C(O)C(O)C2O)O[C@H]1n1cnc2c(N)ncnc21 (single isomer, unassigned) [Example 97D]", "experimentalResult": "> 1 µM"}
{"compound": "Nc1ncnc2c1ncn2[C@@H]1O[C@H](COP(=O)(S)OP(=O)(O)OC2OC([C@@H](O)CO)C(O)C(O)C2O)[C@@H](O)[C@H]1N1CCCC1 (stereo partly drawn) [Example 37D]", "experimentalResult": "> 3 µM"}

Proceeding to the next compound to report its EC50.
Lookup: Field request: EC50 | item: CC(=O)OC[C@H](OC(C)=O)C1OC(OP(=O)(O)OP(=O)(S)OC[C@H]2O[C@@H](n3cnc4c(N)ncnc43)[C@H](N3CCCC3)[C@@H]2O)C(OC(C)=O)C(OC(C)=O)C1OC(C)=O (stereo partly drawn) [Example 37C]
Found: > 3 µM
